Data origin, for the record: PubChem BioAssay

test summary: JC-1 mitochondrial potential readout, lung cancer cells – cell-based, A549, JC-1 fluorescence, basal, 24 h, 100 nL, profiling panel (AID 1138);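 further: A549 lung adenocarcinoma cells under basal conditions with no added stimulus; test concentration not given here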
stated conditions: higher = more signal
Lab note: anything with z-score at or over 0.7 counts as fulfilled; the rest go in not fulfilled.

Form field: z-score at least 0.7? Entry: CN(C)CCCNC(=O)[C@@H]1c2ccccc2C(=O)N(Cc2ccccc2C(F)(F)F)[C@H]1c1ccc(CO)cc1
fulfilled

Form field: z-score at least 0.7? Entry: COc1ccc([Si](C)(C)[C@H]2[C@H](CCO)O[C@@]3(C(=O)N(Cc4cccc(N(C=O)c5ccccc5)c4)c4ccccc43)[C@@H]2C)cc1
fulfilled

Form field: z-score at least 0.7? Entry: COCCOC(=O)N1C(=O)[C@@]2(c3cc(C#Cc4ccc(OC)cc4)ccc31)[C@H](c1ccc(OCCO)cc1)N1[C@H](c3ccccc3)[C@H](c3ccccc3)OC(=O)[C@H]1[C@@H]2C(=O)NC[C@H](O)c1ccccc1
not fulfilled

Form field: z-score at least 0.7? Entry: NC(=O)NCC#Cc1ccc2c(c1)[C@]1(C(=O)N2)[C@H](c2ccc(OCCO)cc2)N2[C@H](c3ccccc3)[C@H](c3ccccc3)OC(=O)[C@H]2[C@@H]1C(=O)O
not fulfilled

Form field: z-score at least 0.7? Entry: CN(C)CCCCNC(=O)[C@H]1C[C@H]2C(=O)N3CCC[C@H]3C(=O)N2[C@H]1c1cccc(OCCO)c1
not fulfilled

Form field: z-score at least 0.7? Entry: COc1ccc(C(O)C2C=CC3C(=O)N(c4ccccc4)C(=O)C3N2Nc2ccc(C#N)cc2)cc1OCc1ccccc1 (stereo not given)
not fulfilled

Form field: z-score at least 0.7? Entry: C[N+](C)(C)CCCC[C@@H]1NC(=O)[C@@H]2C[C@H](C(=O)NCc3ccc(F)cc3)[C@H](c3ccc(O)cc3)N2C1=O
not fulfilled

Form field: z-score at least 0.7? Entry: CCCCCCc1nc(Cc2cc(OC)c(OC)c(OC)c2)cc2c1[Si](C(C)C)(C(C)C)O[C@H]2c1ccccc1
not fulfilled

Form field: z-score at least 0.7? Entry: CC1CC/C=C\[C@H]2OC34C=CCN(Cc5ccccc5)C(=O)[C@H]3N(CCCCCCO)C(=O)[C@@H]4C2C(=O)O1 (stereo not given in full)
fulfilled

----------
Listing of recorded composite z-score by entry.
target system: Pro-neuregulin-1, membrane-bound isoform (Homo sapiens)
test summary: small molecules binding neuregulin-1 protein – biochemical, small-molecule microarray, fluorescence 635/667, psychiatric disease protein project, primary screen (AID 1075);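 further: score combines 667 nm spot fluorescence with signal to noise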
stated conditions: NRG1 binding, 635 nm fluorescence, higher = more signal
// keep it numeric: no unit symbol after the value

Completed entries (count: 3):
INSERT INTO assay_data (molecule, recorded_result) VALUES
  ('C=CC[C@@]1(C(=O)OC)N=C(c2ccc(OCCCO)cc2)O[C@@H]1c1ccccc1N=[N+]=[N-]', 1.49),
  ('COC(=O)C1=CC(CCCO)=CC(c2cccs2)N(Cc2cc3c(cc2Br)OCO3)C=C1C(=O)OC (centres undefined)', 1.66),
  ('CCCNC(=O)[C@@]1(Sc2ccc(C)cc2)CC(=O)N(Cc2ccccc2Cl)[C@@H]1c1ccc(CO)cc1I', 1.4);

Here's the next entry for you.
Entry CC(C)C[C@@H]1NC(=O)[C@@]23C(=O)N[C@@H](Cc4ccccc4)C2[C@H](C)[C@@]2(C)O[C@H]2C3/C=C/C/C=C\CNC(=O)CNC1=O (some centres undefined) — recorded composite z-score = 0.458

----------
test summary: COS7 lysate on small-molecule microarray, probe aHis, 635 nm (AID 1123);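 further: z-score combines 667nm fluorescence intensity with signal-to-noise per printed compound spot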
stated conditions: COS7 cell lysate, fluorescence, higher = more signal
Lab note: anything with composite z-score at or over 2 counts as class 1; the rest go in class 0.

These solved cases illustrate the format of a correct answer.
INSERT INTO assay_data (compound, classification) VALUES
  ('CC(C)=CCCC=C(C)C(O)C1C=CC2C(=O)N(c3ccccc3)C(=O)C2N1Nc1ccc(C#N)cc1 (stereo not drawn)', 'class 1'),
  ('COC(=O)[C@@]1(Cc2ccccc2)[C@H]2c3cc(C(=O)N4CCCC4)n(Cc4ccc(OC)c(OC)c4)c3C[C@H]2CN1C(=O)c1ccccc1', 'class 1'),
  ('CCOC(=O)C[C@H]1[C@H](OC(=O)Cc2ccc3c(c2)OCO3)[C@@H](NC(=O)c2ccc3ccccc3n2)c2cc(OCCCO)ccc2N1C(=O)Cc1ccc(OC)cc1', 'class 0'),
  ('COc1ccc([Si](C)(C)[C@H]2[C@H](CCO)O[C@@]3(C(=O)N(Cc4ccc(NC(=O)[C@H](C)O)cc4)c4ccccc43)[C@@H]2C)cc1', 'class 0'),
  ('COc1ccc([Si](C)(C)[C@H]2[C@H](CC(=O)N3Cc4ccccc4C[C@H]3CO)O[C@@]3(C(=O)N(C)c4c(Br)cc(C)cc43)[C@@H]2C)cc1', 'class 0'),
  ('C=C1C(=O)C=C2CN(C(=O)c3ccccc3)[C@@](Cc3ccc(OC)cc3)(C(=O)OC)[C@@H]12', 'class 1');

Now examine the next entry.
Form field: composite z-score at least 2? Entry: O=C(NC1CC1)[C@@H]1c2ccccc2C(=O)N(CC23CC4CC(CC(C4)C2)C3)[C@H]1c1ccc(CO)cc1
class 1

----------
Listing of recorded composite z-score by entry.
test summary: binders of probe aHhip on microarray, primary screen, stem cell growth factor project, biochemical, small-molecule microarray, fluorescence 635/667 (AID 1087);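 further: score merges spot fluorescence at 667nm with spot signal to noise ratio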
stated conditions: higher = more signal

Completed entries (count: 6):
INSERT INTO results (compound, observation_type, recorded_result) VALUES
  ('COC(=O)[C@@]1(Cc2ccccc2)[C@H]2c3cc(C(=O)N4CCCC4)n(Cc4ccc(OC)c(OC)c4)c3C[C@H]2CN1C(=O)c1ccccc1', 'composite z-score', 0.857),
  ('CN(C)CCCNC(=O)[C@@]1(C)c2ccccc2C(=O)N(Cc2ccc(OC(F)(F)F)cc2)[C@H]1c1ccc(CO)cc1', 'composite z-score', -0.435),
  ('CCOC(=O)C[C@H]1[C@H](OC(=O)c2ccccc2-c2ccccc2)[C@@H](NC(=O)C2CCCCC2)c2cc(OCCCO)ccc2N1C(=O)c1ccc2ccccc2n1', 'composite z-score', -0.0296),
  ('COC(=O)[C@H](Cc1ccccc1)N1CC2=CCCC=C[C@@H]2[C@H]1[C@H](O)Cc1ccccc1', 'composite z-score', -0.0427),
  ('CO[C@H]1O[C@H](CO)[C@@H](OC(=O)Nc2ccccc2-c2ccccc2)[C@H](OC(=O)Nc2ccccc2)[C@H]1OC(=O)Nc1ccccc1', 'composite z-score', -0.0237),
  ('C=C(CCCC)/C(=C/C[C@H](OC(=O)c1ccncc1)c1ccccc1OCCO)c1cc(C(=O)OC)ccc1OC', 'composite z-score', -0.0237);

Entry CC(C)(C)N1CC=CC23O[C@@H]4C=CCOC(=O)[C@@H]4[C@H]2C(=O)N(CCO)[C@@H]3C1=O (some centres not stated) — recorded composite z-score = -0.274

----------
target system: Torsin-1A (Homo sapiens) (UniProt O14656)
Sequence (O14656 whole entry, looked up): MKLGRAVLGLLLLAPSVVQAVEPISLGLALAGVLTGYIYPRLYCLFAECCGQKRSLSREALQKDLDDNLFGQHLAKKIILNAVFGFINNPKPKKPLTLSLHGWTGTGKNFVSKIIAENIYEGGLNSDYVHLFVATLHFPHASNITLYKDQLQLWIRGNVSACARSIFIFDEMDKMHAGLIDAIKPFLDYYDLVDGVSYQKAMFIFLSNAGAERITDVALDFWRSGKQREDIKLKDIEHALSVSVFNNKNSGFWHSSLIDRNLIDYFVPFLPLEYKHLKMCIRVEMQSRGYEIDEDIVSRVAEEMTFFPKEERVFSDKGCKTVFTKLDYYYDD
test summary: TOR1A wild-type binding on microarray – cell lysate, small-molecule microarray, lysate, 635/667 nm, primary screen (AID 1149)
stated conditions: COS7 hTOR1A-WT lysate, 635 nm fluorescence, higher = more signal
observation type: composite z-score
// keep it numeric: no unit symbol after the value

Completed entries (count: 3):
INSERT INTO results (compound, observation_type, recorded_result) VALUES
  ('CC(C)NC(=O)[C@@]1(C)c2ccccc2C(=O)N(Cc2ccccc2)[C@H]1c1ccc(CO)cc1', 'composite z-score', 0.654),
  ('O=C(NCc1ccc(F)cc1)[C@H]1C[C@H]2C(=O)N3CCC[C@H]3C(=O)N2[C@H]1c1ccc(O)cc1', 'composite z-score', 0.264),
  ('CN(C)CCCNC(=O)[C@@H]1c2ccccc2C(=O)N(Cc2ccccc2C(F)(F)F)[C@H]1c1ccc(CO)cc1', 'composite z-score', 0.0406);

Here's the next entry for you.
Entry O=C(NCC(O)CO)C1N=C(c2ccc(OCCCO)cc2)N(c2ccccc2)O1 (centres undefined) — recorded composite z-score = 0.975

----------
target system: Dihydroorotate dehydrogenase (quinone), mitochondrial (Plasmodium falciparum (isolate 3D7)) (UniProt Q08210)
Sequence (Q08210 whole entry, looked up): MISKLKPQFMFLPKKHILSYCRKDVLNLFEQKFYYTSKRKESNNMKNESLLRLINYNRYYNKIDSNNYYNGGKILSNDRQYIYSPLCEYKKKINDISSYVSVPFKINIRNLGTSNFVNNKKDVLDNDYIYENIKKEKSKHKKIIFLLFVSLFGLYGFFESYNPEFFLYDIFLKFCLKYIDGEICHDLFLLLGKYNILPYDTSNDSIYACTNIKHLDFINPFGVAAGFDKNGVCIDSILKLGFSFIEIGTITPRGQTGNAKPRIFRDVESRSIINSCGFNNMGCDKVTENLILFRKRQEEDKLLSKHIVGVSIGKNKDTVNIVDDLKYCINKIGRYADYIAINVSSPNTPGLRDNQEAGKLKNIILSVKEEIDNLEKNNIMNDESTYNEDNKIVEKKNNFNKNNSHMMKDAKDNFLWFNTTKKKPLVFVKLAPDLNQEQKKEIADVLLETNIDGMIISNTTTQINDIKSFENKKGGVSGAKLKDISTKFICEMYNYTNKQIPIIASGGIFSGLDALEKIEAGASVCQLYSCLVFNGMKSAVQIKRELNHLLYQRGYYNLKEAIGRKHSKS
test summary: inhibition of P. falciparum DHODH – biochemical, C-terminal His tag, absorbance 600 nm, primary screen (AID 1175);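 further: recombinant parasite enzyme with a five histidine tag at its C terminus; test concentration not given here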
stated conditions: PfDHODH enzyme, DCIP absorbance 600 nm; higher = more signal, called active from +8 up or from −8 down
Listing of recorded composite z-score by entry.
// keep it numeric: no unit symbol after the value

Completed entries (count: 3):
INSERT INTO assay_data (compound, recorded_result) VALUES
  ('COCCOC(=O)N1C(=O)[C@@]2(c3ccccc31)[C@H](c1ccc(O)cc1)N1[C@H](c3ccccc3)[C@H](c3ccccc3)OC(=O)[C@H]1[C@@H]2C(=O)N1CCCCCCC1', 0.161),
  ('C=C(COC)C(=O)CC[C@H](OC(=O)c1cccnc1)c1ccc(OCCO)cc1', -2.45),
  ('CC(C)C(CO)N1C(=O)[C@@H]2C3C(=O)OCCC/C=C\[C@H]3OC23C=CCN(Cc2ccccc2)C(=O)[C@@H]13 (some centres undefined)', -0.479);

Entry CN(C)c1ccc(C(O)C2C=CC3C(=O)N(Cc4ccccc4)C(=O)C3N2n2cnnc2)cc1 (centres undefined) — recorded composite z-score = -0.536
